- System: Lethal factor (Bacillus anthracis, UniProt P15917)
- Sequence (P15917 whole entry): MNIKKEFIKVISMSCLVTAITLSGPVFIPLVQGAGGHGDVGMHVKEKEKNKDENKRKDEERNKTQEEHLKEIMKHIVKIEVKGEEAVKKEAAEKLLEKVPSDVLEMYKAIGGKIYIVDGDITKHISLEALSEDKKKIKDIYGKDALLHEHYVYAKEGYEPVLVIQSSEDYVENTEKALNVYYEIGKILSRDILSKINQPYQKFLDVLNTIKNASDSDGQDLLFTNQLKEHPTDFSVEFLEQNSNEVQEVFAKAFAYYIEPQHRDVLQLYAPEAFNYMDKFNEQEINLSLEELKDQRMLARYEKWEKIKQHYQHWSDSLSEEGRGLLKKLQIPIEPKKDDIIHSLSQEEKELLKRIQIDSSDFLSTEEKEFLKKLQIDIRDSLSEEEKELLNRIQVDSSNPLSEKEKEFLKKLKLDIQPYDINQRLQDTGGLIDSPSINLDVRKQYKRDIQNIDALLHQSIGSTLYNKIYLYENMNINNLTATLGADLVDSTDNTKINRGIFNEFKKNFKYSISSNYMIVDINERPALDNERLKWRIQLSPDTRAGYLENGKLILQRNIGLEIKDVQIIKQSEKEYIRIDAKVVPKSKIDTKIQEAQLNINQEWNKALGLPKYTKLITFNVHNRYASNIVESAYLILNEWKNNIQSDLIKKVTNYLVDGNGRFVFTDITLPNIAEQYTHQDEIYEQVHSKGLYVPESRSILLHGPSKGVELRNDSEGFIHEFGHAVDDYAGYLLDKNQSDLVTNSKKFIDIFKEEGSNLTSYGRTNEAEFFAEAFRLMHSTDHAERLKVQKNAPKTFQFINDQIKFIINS

# Compound, Units label, Operator symbol, IC50
measured = [
    ("CC(C)[C@@H](NS(=O)(=O)CC(F)(F)F)C(=O)NO", "nM", ">", 40000),
    ("COc1ccc(S(=O)(=O)N[C@@H](C(=O)NO)C(C)C)cc1", "nM", "=", 900),
    ("Cc1cc(S(=O)(=O)N[C@H](CCNC(=O)C(C)(C)N)C(=O)NO)ccc1F", "nM", "=", 57),
    ("Cc1cc(S(=O)(=O)NC(CCc2c[nH]cn2)C(=O)NO)ccc1F (racemic)", "nM", "=", 75),
    ("Cc1cc(S(=O)(=O)N[C@@H](C(=O)NO)c2ccccc2)ccc1F", "nM", "=", 50),
    ("Cc1cc(S(=O)(=O)N[C@@H](C(=O)NO)C2CCOCC2)ccc1F", "nM", "=", 54),
    ("Cc1cc(S(=O)(=O)N[C@@H](C(=O)NO)C2CCC2)ccc1F", "nM", "=", 130),
    ("CC(C)[C@@H](NS(=O)(=O)c1ccc(-c2ccccc2)cc1)C(=O)NO", "nM", ">", 40000),
    ("CC(C)[C@@H](NS(=O)(=O)c1ccc(-c2cnns2)s1)C(=O)NO", "nM", "=", 810),
    ("Cc1cc(S(=O)(=O)N[C@@H](C(=O)NO)C2CCCCC2)ccc1F", "nM", "=", 42),
    ("CC(C)[C@@H](NS(=O)(=O)c1ccc(F)c2ccccc12)C(=O)NO", "nM", "=", 460),
    ("Cc1cc(S(=O)(=O)N[C@H](CC2CC2)C(=O)NO)ccc1F", "nM", "=", 51),
    ("CC(C)[C@@H](NS(=O)(=O)Cc1cccc(Cl)c1)C(=O)NO", "nM", "=", 16600),
    ("CC(C)[C@@H](NS(=O)(=O)c1ccc(Cl)s1)C(=O)NO", "nM", "=", 1310),
    ("CCCCOc1ccc(S(=O)(=O)N[C@@H](C(=O)NO)C(C)C)cc1", "nM", ">", 40000),
    ("COc1ccc(S(=O)(=O)N(CCc2ccsc2)[C@@H](C(=O)NO)C(C)C)cc1", "nM", "=", 2100),
    ("CC(C)[C@@H](NS(=O)(=O)c1ccc(Oc2ccccc2)cc1)C(=O)NO", "nM", ">", 40000),
    ("CC(C)[C@@H](NS(=O)(=O)c1ccc(C(F)(F)F)cc1)C(=O)NO", "nM", ">", 40000),
    ("CC(C)[C@@H](NS(=O)(=O)c1ccc(F)c(CO)c1)C(=O)NO", "nM", "=", 600),
    ("CC(C)[C@@H](NS(=O)(=O)c1ccccc1)C(=O)NO", "nM", "=", 1100),
    ("Cc1cc(S(=O)(=O)N[C@@H](C(=O)NO)C(C)C)ccc1OCc1ccccc1", "nM", ">", 40000),
    ("Cc1cc(S(=O)(=O)N[C@@H](C(=O)NO)[C@@H](C)C2CC2)ccc1F", "nM", "=", 65),
    ("CC(C)[C@@H](NS(=O)(=O)c1ccc(F)cc1)C(=O)NO", "nM", "=", 290),
    ("Cc1cccc(S(=O)(=O)N[C@@H](C(=O)NO)C(C)C)c1", "nM", "=", 400),
]

Reference source for all entries: ChEMBL document CHEMBL1138106
